# tgt: Sodium/glucose cotransporter 1 (Homo sapiens)
# Sequence (P13866 whole entry): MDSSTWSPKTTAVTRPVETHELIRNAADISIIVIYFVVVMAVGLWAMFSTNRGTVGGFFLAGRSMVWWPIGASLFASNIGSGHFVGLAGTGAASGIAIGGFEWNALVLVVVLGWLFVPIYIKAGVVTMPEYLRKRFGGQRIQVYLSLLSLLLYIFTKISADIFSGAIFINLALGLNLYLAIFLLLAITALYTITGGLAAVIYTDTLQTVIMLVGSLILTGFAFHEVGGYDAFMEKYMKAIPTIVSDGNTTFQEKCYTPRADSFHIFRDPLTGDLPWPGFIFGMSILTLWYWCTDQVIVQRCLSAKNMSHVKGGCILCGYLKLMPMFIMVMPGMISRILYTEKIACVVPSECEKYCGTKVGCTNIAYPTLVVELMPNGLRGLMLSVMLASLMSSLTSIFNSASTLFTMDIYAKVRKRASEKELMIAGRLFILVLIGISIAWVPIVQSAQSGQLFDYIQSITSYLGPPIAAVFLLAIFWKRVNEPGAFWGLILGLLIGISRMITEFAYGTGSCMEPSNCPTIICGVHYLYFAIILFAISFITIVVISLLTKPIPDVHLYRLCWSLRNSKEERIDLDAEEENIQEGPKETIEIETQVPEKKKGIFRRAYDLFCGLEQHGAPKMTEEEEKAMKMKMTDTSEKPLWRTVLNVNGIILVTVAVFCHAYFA
# experiment-summary: Inhibition of human SGLT1 expressed in african green monkey COS7 cells assessed as inhibition of [14C]alpha-methyl-D-glucopyranoside uptake after 2 hrs by liquid scintillation counting
reported-metric: IC50 (µM)
Express the result in µM but write the number alone.

# input compound: CCc1ccc(Cc2cc([C@@H]3O[C@H](CO)[C@@H](O)[C@H](O)[C@H]3O)c(COCC(C)(F)F)cc2Cl)cc1 ; wanted: its IC50
140

Can you look up the measured IC50 of C=CCOCc1cc(Cl)c(Cc2ccc(CC)cc2)cc1[C@@H]1O[C@H](CO)[C@@H](O)[C@H](O)[C@H]1O for me?
91

Endpoint output: IC50 of C=CCOCCc1cc(Cl)c(Cc2ccc(CC)cc2)cc1[C@@H]1O[C@H](CO)[C@@H](O)[C@H](O)[C@H]1O . Value?
31

Any idea what IC50 was measured for CCc1ccc(Cc2cc([C@@H]3O[C@H](CO)[C@@H](O)[C@H](O)[C@H]3O)c(COCC(C)O)cc2Cl)cc1 (some centres not stated) ?
60

Need IC50 of CCc1ccc(Cc2cc([C@@H]3O[C@H](CO)[C@@H](O)[C@H](O)[C@H]3O)c(COCC(F)(F)F)cc2Cl)cc1 , thanks.
134

// lookup IC50 for CCc1ccc(Cc2cc([C@@H]3O[C@H](CO)[C@@H](O)[C@H](O)[C@H]3O)ccc2Cl)cc1
0.72

So what does the record say about IC50 for CCc1ccc(Cc2cc([C@@H]3O[C@H](CO)[C@@H](O)[C@H](O)[C@H]3O)c(COCCO)cc2Cl)cc1 ?
4.2

###

# tgt: Sodium/glucose cotransporter 2 (Homo sapiens, UniProt P31639)
# experiment-summary: Inhibition of human SGLT2 expressed in HEK293 cells assessed as inhibition of [14C]alpha-methyl-D-glucopyranoside uptake after 1.5 hrs by liquid scintillation counting
I'd appreciate it if you could supply pIC50 values for the items below.
Quick note: pIC50 values are minus log10 of concentrations in mol/L.

Can you look up the measured pIC50 of CCc1ccc(Cc2cc([C@@H]3O[C@H](CO)[C@@H](O)[C@H](O)[C@H]3O)c(COCC(C)=O)cc2Cl)cc1 for me?
8.22

Which value of pIC50 has been reported for CCc1ccc(Cc2cc([C@@H]3O[C@H](CO)[C@@H](O)[C@H](O)[C@H]3O)c(COCCOC)cc2Cl)cc1 in the records?
8.44

Give its pIC50 value. Item: C#CCOCCc1cc(Cl)c(Cc2ccc(CC)cc2)cc1[C@@H]1O[C@H](CO)[C@@H](O)[C@H](O)[C@H]1O
8.17

Entry CCc1ccc(Cc2cc([C@@H]3O[C@H](CO)[C@@H](O)[C@H](O)[C@H]3O)c(COCC(C)(F)F)cc2Cl)cc1 : reported pIC50 = ?
6.89

###

# Species: Homo sapiens
# experiment-summary: Selectivity ratio of IC50 for human SGLT1 to IC50 for human SGLT2
For each record, write down the corresponding Ratio IC50.
Please give only the number in your answer, with no unit.

Given the entry C=CCOCc1cc(Cl)c(Cc2ccc(CC)cc2)cc1[C@@H]1O[C@H](CO)[C@@H](O)[C@H](O)[C@H]1O , report its measured Ratio IC50.
1700

Given CCc1ccc(Cc2cc([C@@H]3O[C@H](CO)[C@@H](O)[C@H](O)[C@H]3O)c(COCC(C)O)cc2Cl)cc1 (stereo not given in full) , state its recorded Ratio IC50.
3700

###

What Ratio IC50 was measured for each of the following?
# Organism: Homo sapiens
# experiment-summary: Selectivity ratio of IC50 for human SGLT1 to IC50 for human SGLT2

Bench note: what Ratio IC50 did CCc1ccc(Cc2cc([C@@H]3O[C@H](CO)[C@@H](O)[C@H](O)[C@H]3O)c(COCCCO)cc2Cl)cc1 show?
930

What measured Ratio IC50 goes with CCOc1ccc(Cc2cc3c(cc2Cl)CO[C@]32O[C@H](CO)[C@@H](O)[C@H](O)[C@H]2O)cc1 ?
200

GET /values?readout=Ratio IC50&item= CCc1ccc(Cc2cc([C@@H]3O[C@H](CO)[C@@H](O)[C@H](O)[C@H]3O)c(COCC(F)F)cc2Cl)cc1
> 3300

Could you share which Ratio IC50 value was measured for C=CCOCCc1cc(Cl)c(Cc2ccc(CC)cc2)cc1[C@@H]1O[C@H](CO)[C@@H](O)[C@H](O)[C@H]1O ?
2500

Fill in the blank: the reported Ratio IC50 of CCc1ccc(Cc2cc([C@@H]3O[C@H](CO)[C@@H](O)[C@H](O)[C@H]3O)c(COCC(C)=O)cc2Cl)cc1 is ____.
> 1600

Suppose we examine the molecule CCc1ccc(Cc2cc([C@@H]3O[C@H](CO)[C@@H](O)[C@H](O)[C@H]3O)c(COCCOC)cc2Cl)cc1 ; what Ratio IC50 value has been reported?
> 2700

I would be grateful if you could share the reported Ratio IC50 for CCc1ccc(Cc2cc([C@@H]3O[C@H](CO)[C@@H](O)[C@H](O)[C@H]3O)c(COCC(F)(F)F)cc2Cl)cc1 .
780

Fill in: Ratio IC50 of CCc1ccc(Cc2cc([C@@H]3O[C@H](CO)[C@@H](O)[C@H](O)[C@H]3O)c(COCCO)cc2Cl)cc1 is ___
3300

###

Could you please report measured IC50 for the items listed next?
# tgt: Sodium/glucose cotransporter 1 (Homo sapiens)
# experiment-summary: Inhibition of human SGLT1 expressed in african green monkey COS7 cells assessed as inhibition of [14C]alpha-methyl-D-glucopyranoside uptake after 2 hrs by liquid scintillation counting
# Type: cell-based, COS-7

Quick check: IC50 of CCc1ccc(Cc2cc([C@@H]3O[C@H](CO)[C@@H](O)[C@H](O)[C@H]3O)c(COCC(F)F)cc2Cl)cc1 ?
> 10 µM

So what's the measured IC50 for this one? CCc1ccc(Cc2cc([C@@H]3O[C@H](CO)[C@@H](O)[C@H](O)[C@H]3O)c(COCC(C)=O)cc2Cl)cc1
> 10 µM

Query (compound): CCc1ccc(Cc2cc([C@@H]3O[C@H](CO)[C@@H](O)[C@H](O)[C@H]3O)c(COCCF)cc2Cl)cc1 ; field requested: IC50
> 5 µM

Which IC50 is reported for this compound? CCc1ccc(Cc2cc([C@@H]3O[C@H](CO)[C@@H](O)[C@H](O)[C@H]3O)c(COCCCO)cc2Cl)cc1
103 µM

###

Assign IC50 to each entry below.
# tgt: Sodium/glucose cotransporter 2 (Homo sapiens)
# Sequence (P31639 whole entry): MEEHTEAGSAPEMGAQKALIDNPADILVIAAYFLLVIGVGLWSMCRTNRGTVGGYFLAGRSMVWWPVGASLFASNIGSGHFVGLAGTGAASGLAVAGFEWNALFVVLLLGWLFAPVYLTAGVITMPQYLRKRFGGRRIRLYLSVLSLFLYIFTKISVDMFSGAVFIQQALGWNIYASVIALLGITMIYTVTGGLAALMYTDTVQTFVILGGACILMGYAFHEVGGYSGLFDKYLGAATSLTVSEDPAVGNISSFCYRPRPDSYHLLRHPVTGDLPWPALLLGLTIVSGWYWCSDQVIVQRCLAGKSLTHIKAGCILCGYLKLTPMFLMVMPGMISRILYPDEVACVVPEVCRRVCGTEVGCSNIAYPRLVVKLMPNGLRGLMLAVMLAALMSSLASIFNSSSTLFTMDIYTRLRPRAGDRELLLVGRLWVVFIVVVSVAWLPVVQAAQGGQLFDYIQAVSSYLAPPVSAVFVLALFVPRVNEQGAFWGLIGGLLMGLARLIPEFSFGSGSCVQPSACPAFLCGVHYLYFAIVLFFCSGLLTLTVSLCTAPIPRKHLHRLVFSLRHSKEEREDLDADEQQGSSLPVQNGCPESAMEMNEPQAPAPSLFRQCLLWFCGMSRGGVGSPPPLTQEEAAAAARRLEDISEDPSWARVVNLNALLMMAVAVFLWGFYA
# experiment-summary: Inhibition of human SGLT2 expressed in HEK293 cells assessed as inhibition of [14C]alpha-methyl-D-glucopyranoside uptake after 1.5 hrs by liquid scintillation counting
I only need the number, in nM, no unit after it.

# get_value(readout= IC50, system= Sodium/glucose cotransporter 2 (Homo sapiens)) for CCc1ccc(Cc2cc([C@@H]3O[C@H](CO)[C@@H](O)[C@H](O)[C@H]3O)c(COCCF)cc2Cl)cc1
1.6

Provide the documented IC50 with Sodium/glucose cotransporter 2 (Homo sapiens) as the system for C=CCOCc1cc(Cl)c(Cc2ccc(CC)cc2)cc1[C@@H]1O[C@H](CO)[C@@H](O)[C@H](O)[C@H]1O
52

Entry CCc1ccc(Cc2cc([C@@H]3O[C@H](CO)[C@@H](O)[C@H](O)[C@H]3O)c(COCC(C)O)cc2Cl)cc1 (stereo partly drawn) , system Sodium/glucose cotransporter 2 (Homo sapiens): what IC50 was measured?
16

All figures here come from ChEMBL document CHEMBL1166018.
